These data points were gathered from PubChem BioAssay AID1159580.

Test: chemical genetic growth profiling, strain panel (AID 1159580);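 further: tested at 20 µM; growth read once vehicle control cultures reached saturation at 30 °C; 1 = growth at the plate median or of vehicle wells; lower values mean less growth of the strain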
Details: S. cerevisiae deletion strains, growth OD, locus YJL187C, strain SWE1, hits give low values
The campaign covered roughly 5,500 compounds. About 2,000 (36%) were called active. Not shown: some 18% with an inconclusive outcome. Some of the results follow.
We label by threshold. Values of normalized growth strictly beneath 1 are Satisfied. Values of 1 and up are Not satisfied.

>>> discrete_label("COC(=O)c1cn(Cc2ccc(C(F)(F)F)cc2)cc(F)c1=O")
"Not satisfied"
>>> discrete_label("Nc1ccc(C(=O)Oc2ccccc2)c(O)c1")
"Satisfied"
>>> discrete_label("CCCCCCc1ccc(O)cc1O")
"Satisfied"

Does `S=c1ccss1` have normalized growth strictly under 1?
Satisfied

###

Experiment: chemical genetic growth profiling, strain panel (AID 1159580);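 further: tested at 20 µM; growth read once vehicle control cultures reached saturation at 30 °C; 1 = growth at the plate median or of vehicle wells; lower values mean less growth of the strain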
Settings: S. cerevisiae deletion strains, growth OD, locus YAL030W, strain snc1, hits give low values
About 2,000 (36%) of roughly 5,500 compounds were called active. Inconclusive results (about 18%) are left out. The list shows a part of the results.
We label by threshold. Values of normalized growth strictly beneath 1 are t. Values of 1 and up are f.

>>> discrete_label("Nc1nnc(-c2cccc(Cl)c2Cl)c(N)n1")
"f"

Continue with the compound presented below.
Does `O=C(O)c1cn(-c2ccc(F)cc2)c2cc(N3CCNCC3)c(F)cc2c1=O` have normalized growth strictly under 1?
t

###

Test: chemical genetic growth profiling, strain panel (AID 1159580);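 further: tested at 20 µM; growth read once vehicle control cultures reached saturation at 30 °C; 1 = growth at the plate median or of vehicle wells; lower values mean less growth of the strain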
Details: S. cerevisiae deletion strains, growth OD, locus YNL250W, strain rad50
Hit rate of the full screen: of about 5,500 compounds, about 2,000 (36%) were called active. Inconclusive results (about 18%) are left out. No stated cut-off is given here; in the data, active means normalized growth mostly below about 0.91 (no sharp cut-off); inconclusive means no clear call, values can overlap the other calls; inactive means mostly above about 0.92. The list shows a part of the results.
Outcome field: choose from y for active, n for inactive

>>> discrete_label("O=c1oc2ccccc2c(O)c1Cc1c(O)c2ccccc2oc1=O")
"n"
>>> discrete_label("CC(=O)O.CC(=O)O.[Cd]")
"y"
>>> discrete_label("CC(=O)CC(c1ccccc1)c1c(O)c2ccccc2oc1=O (stereo unspecified)")
"n"

How was `O=C1c2c(O)ccc(O)c2C(=O)c2c(NCCNCCO)ccc(NCCNCCO)c21` classified in this test?
y

What would you report for CC1NC(=O)NC1=O (stereo unspecified) ?
n

What would you report for CC1(C)O[C@@H]2CC3C4C[C@H](F)C5=CC(=O)C=CC5(C)C4C(O)CC3(C)[C@]2(C(=O)CO)O1 (stereo partly specified) ?
n

###

For each entry below, report its normalized growth value.
Assay: chemical genetic growth profiling, strain panel (AID 1159580);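 further: tested at 20 µM; growth read once vehicle control cultures reached saturation at 30 °C; 1 = growth at the plate median or of vehicle wells; lower values mean less growth of the strain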
Conditions: S. cerevisiae deletion strains, growth OD, locus YGR135W, strain pre9, hits give low values
Hit rate of the full screen: of about 5,500 compounds, about 2,000 (36%) were called active. Inconclusive results (about 18%) are left out. The list shows a part of the results.
One number for each entry.

>>> measured("CC(=O)O[C@H]1C[C@H](O[C@H]2[C@@H](O)C[C@H](O[C@H]3[C@@H](O)C[C@H](O[C@H]4CC[C@@]5(C)C(CCC6C5C[C@@H](O)[C@]5(C)[C@@H](C7=CC(=O)OC7)CC[C@]65O)C4)O[C@@H]3C)O[C@@H]2C)O[C@H](C)[C@H]1O[C@@H]1O[C@H](CO)[C@@H](O)[C@H](O)[C@H]1O (stereo partly drawn)")
1.01
>>> measured("CC(=O)[C@H]1CCC2C3CC=C4C[C@@H](O)CC[C@]4(C)C3CC[C@@]21C (stereo partly drawn)")
0.904

// next entry
Give its normalized growth value. Item: CCC(CCC(C)[C@H]1CCC2C3CC=C4C[C@@H](O)CC[C@]4(C)C3CC[C@@]21C)C(C)C (stereo partly drawn)
0.958
